Data provenance: patent US20250297004A1

# Study target: human Nectin-4 (protein used in the SPR affinity measurements) (human) (UniProt Q96NY8)
# Sequence (Q96NY8 32-349 limits assumed): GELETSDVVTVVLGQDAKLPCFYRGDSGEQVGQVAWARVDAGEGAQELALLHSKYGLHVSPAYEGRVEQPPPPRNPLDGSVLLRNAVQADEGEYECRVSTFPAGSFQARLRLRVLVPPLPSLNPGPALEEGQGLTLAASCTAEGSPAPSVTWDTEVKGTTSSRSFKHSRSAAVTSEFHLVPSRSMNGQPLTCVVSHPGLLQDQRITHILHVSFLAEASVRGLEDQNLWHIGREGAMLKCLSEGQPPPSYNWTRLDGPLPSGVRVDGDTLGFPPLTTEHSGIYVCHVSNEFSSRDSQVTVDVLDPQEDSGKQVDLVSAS
# Protocol text: SPR, human IgG1
Quantity name: koff (s⁻¹)

binder="H5L2 (antibody, human IgG1, V domains shown, human IgG1 isotype) VH: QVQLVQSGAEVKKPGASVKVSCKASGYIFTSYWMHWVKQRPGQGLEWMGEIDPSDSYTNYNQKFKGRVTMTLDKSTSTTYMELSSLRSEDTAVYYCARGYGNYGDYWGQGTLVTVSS VL: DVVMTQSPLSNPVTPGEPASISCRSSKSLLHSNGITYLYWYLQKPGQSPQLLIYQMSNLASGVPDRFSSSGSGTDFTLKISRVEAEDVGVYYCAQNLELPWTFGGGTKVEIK" quantity_name=koff value_reported=0.0053
binder="H7L3 (antibody, human IgG1, V domains shown, human IgG1 isotype) VH: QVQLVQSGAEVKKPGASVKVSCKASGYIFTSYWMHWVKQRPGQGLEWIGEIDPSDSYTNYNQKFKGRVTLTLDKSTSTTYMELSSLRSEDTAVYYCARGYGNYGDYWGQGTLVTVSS VL: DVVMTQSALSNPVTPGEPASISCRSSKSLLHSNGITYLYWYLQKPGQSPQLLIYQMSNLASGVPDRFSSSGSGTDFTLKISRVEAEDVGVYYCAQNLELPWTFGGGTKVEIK" quantity_name=koff value_reported=0.0055
binder="H3L2 (antibody, human IgG1, V domains shown, human IgG1 isotype) VH: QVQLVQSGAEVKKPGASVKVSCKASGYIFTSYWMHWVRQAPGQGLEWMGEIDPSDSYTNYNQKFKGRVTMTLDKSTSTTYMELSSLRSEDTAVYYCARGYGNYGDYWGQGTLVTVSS VL: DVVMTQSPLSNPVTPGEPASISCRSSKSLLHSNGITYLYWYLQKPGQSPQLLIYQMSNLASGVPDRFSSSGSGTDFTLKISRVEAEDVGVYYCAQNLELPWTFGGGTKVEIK" quantity_name=koff value_reported=0.0081
binder="H3L0 (antibody, human IgG1, V domains shown, human IgG1 isotype) VH: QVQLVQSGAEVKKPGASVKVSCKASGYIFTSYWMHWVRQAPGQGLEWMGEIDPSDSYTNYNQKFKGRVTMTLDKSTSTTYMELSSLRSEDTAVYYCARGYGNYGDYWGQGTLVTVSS VL: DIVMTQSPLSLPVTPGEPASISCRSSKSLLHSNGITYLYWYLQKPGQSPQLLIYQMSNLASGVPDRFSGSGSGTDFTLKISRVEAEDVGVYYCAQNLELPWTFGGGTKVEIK" quantity_name=koff value_reported=0.0041
binder="H3L1 (antibody, human IgG1, V domains shown, human IgG1 isotype) VH: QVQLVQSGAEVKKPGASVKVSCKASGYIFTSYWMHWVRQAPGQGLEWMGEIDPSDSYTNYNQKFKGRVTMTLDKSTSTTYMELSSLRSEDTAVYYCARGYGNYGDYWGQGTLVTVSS VL: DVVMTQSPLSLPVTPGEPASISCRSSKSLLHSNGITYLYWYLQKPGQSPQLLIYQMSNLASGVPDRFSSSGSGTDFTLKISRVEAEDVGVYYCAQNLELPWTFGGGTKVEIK" quantity_name=koff value_reported=0.0087
